Target or test system: Human JAK3 (Homo sapiens, UniProt P52333)
Construct: purchased Millipore, Germany
Sequence (P52333 1-1124): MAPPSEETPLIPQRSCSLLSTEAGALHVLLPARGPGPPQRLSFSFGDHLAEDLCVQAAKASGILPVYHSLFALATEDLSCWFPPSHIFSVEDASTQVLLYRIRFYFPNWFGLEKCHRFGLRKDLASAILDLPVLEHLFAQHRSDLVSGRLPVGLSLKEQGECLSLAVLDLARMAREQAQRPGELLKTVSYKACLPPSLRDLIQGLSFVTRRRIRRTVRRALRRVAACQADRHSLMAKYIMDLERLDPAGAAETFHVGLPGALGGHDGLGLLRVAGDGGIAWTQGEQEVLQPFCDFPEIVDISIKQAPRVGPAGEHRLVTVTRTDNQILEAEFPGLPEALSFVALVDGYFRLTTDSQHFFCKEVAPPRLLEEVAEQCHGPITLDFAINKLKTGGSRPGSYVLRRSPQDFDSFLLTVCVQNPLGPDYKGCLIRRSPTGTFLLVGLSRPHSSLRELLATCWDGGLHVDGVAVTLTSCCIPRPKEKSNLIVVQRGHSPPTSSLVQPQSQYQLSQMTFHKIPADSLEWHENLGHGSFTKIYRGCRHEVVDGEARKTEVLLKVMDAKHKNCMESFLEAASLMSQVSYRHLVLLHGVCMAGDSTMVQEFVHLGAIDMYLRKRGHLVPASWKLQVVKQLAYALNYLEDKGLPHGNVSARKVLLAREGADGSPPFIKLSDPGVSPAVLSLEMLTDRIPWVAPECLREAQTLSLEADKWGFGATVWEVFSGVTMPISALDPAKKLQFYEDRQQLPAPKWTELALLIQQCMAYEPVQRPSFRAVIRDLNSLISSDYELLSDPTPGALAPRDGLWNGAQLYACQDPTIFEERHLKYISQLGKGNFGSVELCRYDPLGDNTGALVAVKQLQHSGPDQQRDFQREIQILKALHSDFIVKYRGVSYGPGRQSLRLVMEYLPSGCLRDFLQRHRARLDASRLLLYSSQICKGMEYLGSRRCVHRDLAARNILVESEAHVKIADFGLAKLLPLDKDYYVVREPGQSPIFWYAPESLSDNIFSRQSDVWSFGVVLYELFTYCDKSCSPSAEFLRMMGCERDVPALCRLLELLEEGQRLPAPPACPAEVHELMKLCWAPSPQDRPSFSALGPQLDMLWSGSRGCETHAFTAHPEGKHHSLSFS
Test summary: In-vitro kinase inhibition test, JAK3
Type: biochemical
Experimental parameters: compound at 1 uM; read-out: JAK3 kinase-phosphorylation inhibitory level (% inhibition)
Measurement label: inhibition at 1 µM (%)

CN(c1ncnc2[nH]ccc12)[C@@H]1CCN(S(=O)(=O)c2ccc(F)cc2)C1 ... 29
CC(C)CC(=O)N1CC[C@@H](N(C)c2ncnc3[nH]ccc23)C1 ... 10
CN(c1ncnc2[nH]ccc12)[C@@H]1CCN(S(=O)(=O)C(F)(F)F)C1 ... 11
N#CCC(=O)N1CC[C@@H](N(CC2CC2)c2ncnc3[nH]ccc23)C1 ... 14

P: CN(c1ncnc2[nH]ccc12)[C@@H]1CCN(S(=O)(=O)N2CCOCC2)C1
Q: CN(c1ncnc2[nH]ccc12)[C@@H]1CCN(S(=O)(=O)c2cccc([N+](=O)[O-])c2)C1
Inquiry: Two entries are listed, P and Q . Which one carries the higher inhibition at 1 µM? Respond with the label that goes with your answer.
Reply text: Q
(Q: 74%, P: 13%)
